Cited source for all entries: PubChem BioAssay AID602478

- Tested target: Luciferin 4-monooxygenase (Photinus pyralis)
- Protocol notes: FLuc inhibitory activity for the follow-up compounds in a cell-based translational read-through assay (72 hour incubation)
- Test settings: GripTite 293 FLucUGA read-through, luminescence; series mostly up to 38.3 µM
Results filed as inconclusive are left out. The source made the active and inactive calls. The call rests on the fitted dose curve; in most records, active means well fitted activation curve with a large enough effect; inconclusive means small, poorly fitted or top-dose-only effect; inactive means flat fitted curve, though single readings scatter.
Hello, when you answer, please use one of the following outcomes: label 1 = active, label 0 = inactive

Entry O=C(Nc1ccccc1C(=O)O)c1cccc(NC(=O)c2ccccc2Cl)c1 : call = ?
label 0

Entry CC(=O)Nc1cccc(C(=O)Nc2ccccc2C(=O)O)c1 : call = ?
label 0

Entry CCCOc1cccc(C(=O)Nc2ccc(-c3nc4ccccc4s3)c(Cl)c2)c1 : call = ?
label 0

Entry CCOc1ccc2nc(NC(=O)c3cc([N+](=O)[O-])ccc3N3CCOCC3)sc2c1 : call = ?
label 0

Entry Cc1c(NC(=O)C(C)(C)C)cccc1-c1nc2ccccc2s1 : call = ?
label 0

Entry CCOc1ccc2nc(NC(=O)c3cccnc3)sc2c1 : call = ?
label 1

Entry COc1cccc(OC)c1C(=O)Nc1cccc(C(=O)Nc2cccc(C(=O)O)c2)c1 : call = ?
label 0

Entry Nc1ccc(-c2nc3ccc(C(=O)O)cc3s2)cc1 : call = ?
label 1

Entry O=C(O)c1cccc(NC(=O)c2ccc(Cl)c(S(=O)(=O)N3CCCCCC3)c2)c1 : call = ?
label 1

Entry Cc1ccc(C(=O)Nc2ccc(C(=O)O)cc2)cc1S(=O)(=O)Nc1ccccc1 : call = ?
label 0

Entry CCn1c(C)nc2cc(-c3nc4n(n3)Cc3ccccc3-4)ccc21 : call = ?
label 1

###

- Tested target: Luciferin 4-monooxygenase (Photinus pyralis)
- Protocol notes: FLuc inhibitory activity for the follow-up compounds in a cell-based translational read-through assay (72 hour incubation)
- Test settings: GripTite 293 FLucUGA read-through, luminescence; series mostly up to 38.3 µM
Records with an inconclusive call do not appear. Active and inactive are the calls of the source. Calls come from the whole dose curve; as a rule, active = well fitted activation curve with a large enough effect; inconclusive = small, poorly fitted or top-dose-only effect; inactive = flat fitted curve, though single readings scatter.
Hello, when you answer, please use one of the following outcomes: true (1) (active), false (0) (inactive)

Entry O=C(O)c1ccc(NC(=O)c2ccccc2NC(=O)c2cccc(Br)c2)cc1 : call = ?
false (0)

Entry c1ccc2sc(-c3ccc4c(c3)OCO4)nc2c1 : call = ?
true (1)

Entry Nc1ccc(-c2nc3cc(N)ccc3s2)cc1 : call = ?
true (1)

Entry COc1ccc2nc(NC(=O)c3nc(S(=O)(=O)Cc4ccc(C)cc4)ncc3Cl)sc2c1 : call = ?
false (0)

Entry COc1ccc2nc(NC(=O)c3cnccn3)sc2c1 : call = ?
true (1)

Entry O=C(Nc1cccc(-c2nc3ccccc3s2)c1)C1=COCCO1 : call = ?
false (0)

Entry O=C(O)c1cccc(NC(=O)c2cccc(S(=O)(=O)N3CCc4ccccc4C3)c2)c1 : call = ?
false (0)

Entry Cc1ccc(C(=O)O/N=C(\N)c2ccccn2)cc1 : call = ?
true (1)

Entry COc1ccc2nc(NC(=O)c3cccc(S(=O)(=O)N4CCOCC4)c3)sc2c1 : call = ?
false (0)

Entry O=C(Nc1ccccc1C(=O)O)c1ccc(NC(=O)C2CCCCC2)cc1 : call = ?
false (0)

Entry O=C(COC(=O)c1ccccc1[N+](=O)[O-])c1ccc2c(c1)OCO2 : call = ?
false (0)

Entry CC(=O)Nc1cccc(-c2nc3ccccc3s2)c1C : call = ?
false (0)

Entry O=C(Cc1ccc(Cl)cc1)Nc1cccc(C(=O)Nc2ccccc2C(=O)O)c1 : call = ?
false (0)

Entry COc1ccc(CC(=O)Nc2cccc(C(=O)Nc3ccccc3C(=O)O)c2)cc1OC : call = ?
false (0)

Entry O=C(Nc1ccc(Cl)cc1-c1nc2ccccc2s1)c1ccco1 : call = ?
false (0)

Entry Cc1ccc2nc(-c3ccc(N)cc3)sc2c1 : call = ?
true (1)

Entry COc1ccc(C(=O)Nc2cccc(C(=O)O)c2)cc1S(=O)(=O)N1CCCC1 : call = ?
false (0)

Entry O=C(O)c1ccc(NC(=O)c2cc(S(=O)(=O)N3CCCCC3)c(Cl)cc2Cl)cc1 : call = ?
false (0)

Entry O=C(Cc1ccccc1)Nc1ccc(C(=O)Nc2ccccc2C(=O)O)cc1 : call = ?
false (0)

Entry CC(=O)Oc1ccc(C(=O)Nc2ccccc2C(=O)Nc2ccc(C(=O)O)cc2)cc1 : call = ?
false (0)

Entry Cc1ccc(C(=O)Nc2ccc(C(=O)O)cc2)cc1S(=O)(=O)NCc1ccccc1 : call = ?
false (0)

Entry O=C(Nc1ccccc1C(=O)O)c1cccc(NC(=O)c2ccccc2Br)c1 : call = ?
false (0)

Entry O=C(O)c1ccc(NC(=O)c2cccc(NC(=O)c3cccs3)c2)cc1 : call = ?
false (0)

Entry CC(C)CC(=O)Nc1cccc(C(=O)Nc2ccccc2C(=O)O)c1 : call = ?
false (0)

Entry O=C(Nc1ccccc1C(=O)O)c1cc(S(=O)(=O)Nc2ccccc2)ccc1Cl : call = ?
false (0)

Entry Cc1cccc(C(=O)Nc2ccc(-c3nc4ccccc4s3)cc2Cl)c1 : call = ?
false (0)

Entry CCc1noc(C)c1C(=O)Nc1nc2ccc(OC)cc2s1 : call = ?
false (0)
